Where do the numbers come from? From paper doi:10.1101/2020.10.05.326645v1.

target or system: HhTAR1 (Halyomorpha halys, UniProt A0A8A6C5M4)
Sequence (A0A8A6C5M4 1-448): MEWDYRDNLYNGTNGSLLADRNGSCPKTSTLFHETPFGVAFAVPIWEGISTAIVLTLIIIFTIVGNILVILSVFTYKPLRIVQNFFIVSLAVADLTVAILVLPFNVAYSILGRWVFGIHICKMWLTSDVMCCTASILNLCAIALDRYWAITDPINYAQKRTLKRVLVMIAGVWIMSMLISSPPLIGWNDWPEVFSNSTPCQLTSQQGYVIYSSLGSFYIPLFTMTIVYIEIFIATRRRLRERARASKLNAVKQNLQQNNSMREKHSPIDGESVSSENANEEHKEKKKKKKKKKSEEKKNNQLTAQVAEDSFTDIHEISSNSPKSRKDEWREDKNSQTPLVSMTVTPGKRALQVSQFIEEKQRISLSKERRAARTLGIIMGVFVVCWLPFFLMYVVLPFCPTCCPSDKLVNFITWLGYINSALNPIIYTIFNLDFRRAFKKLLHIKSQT
test protocol: Fluo-4 calcium mobilization, FlexStation II, HEK […] cells

smiles code	readout unit	EC50
NCCc1ccc(O)cc1	nM	1020
